Tested on: MILI (PIWIL2) piRISC loaded with piRNA #1 (26 nt);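 note: 1 nM active piRISC with 0.1 nM target library at 33 °C single turnover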
PROTOCOL TEXT: pre-steady-state target cleavage rate (min^-1); guide: piRNA #1 5'p-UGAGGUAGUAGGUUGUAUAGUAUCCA; MIWI and MILI are mouse PIWI proteins and EfPiwi is from a freshwater sponge; tags in brackets are library labels; higher = faster piRNA-guided slicing of the target
PARTICULARS: auxiliary factor: 500 nM mouse GTSF1
pre-steady-state target cleavage rate of 0.02 or higher: Met. Under 0.02: Not met.

CHAIN | TEST SYSTEM | CATEGORY
GGAGACCUAUCUAUACAACGUACUACCACA | MILI (PIWIL2) piRISC loaded with piRNA #1 (26 nt) | Not met
GGAGAGGAUACUAUACAACCUAUUACCUCA | MILI (PIWIL2) piRISC loaded with piRNA #1 (26 nt) | Met
GGAGACCUAUCUAUACAACCUACUGACCUCA | MILI (PIWIL2) piRISC loaded with piRNA #1 (26 nt) | Met
GGAGACCUAUCUAUACAACCUAGUUCCUCA | MILI (PIWIL2) piRISC loaded with piRNA #1 (26 nt) | Not met
GGAGACGAUACUAUUCAACCUAGUACCUCA | MILI (PIWIL2) piRISC loaded with piRNA #1 (26 nt) | Met
GGAGUGGAAACUAUACAACCUUCUACCUCA | MILI (PIWIL2) piRISC loaded with piRNA #1 (26 nt) | Not met
GGAGACCAUACUAUACAACCUACUUACCUCA | MILI (PIWIL2) piRISC loaded with piRNA #1 (26 nt) | Met

Where these numbers come from: the supplement of paper PMC10338343
